All figures here come from PubChem BioAssay AID743238.

Assay: activators of inactive X chromosome reactivation, primary screen, imaging, XiGFP fibroblasts, GFP high-content imaging, set 2 (AID 743238);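 further: 0% = median of on-plate neutral control wells and 100% = ellipticine 6 µM median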
Conditions: XiGFP mouse fibroblasts, % GFP-positive cells imaging, 3 d; at 7.58 µM; hits give high values; cells co-treated with 5-aza-dC sensitizer; scaled so ellipticine positive control = 100%
Out of some 360,000 compounds screened, about 200 (0.056%) were called active. The entries come from a sample that favours actives as a whole.
measure: activation (%)

1) COc1ccc(S(=O)(=O)Nc2ccc3c(c2)CC(=O)N([C@@H](C)CO)C[C@@H](C)[C@H](CN(C)S(=O)(=O)c2ccccc2)O3)cc1
0.178
2) Cc1ccc(S(=O)(=O)N(C)C[C@@H]2Oc3c(NC(=O)Nc4c(C)noc4C)cccc3C(=O)N([C@@H](C)CO)C[C@@H]2C)cc1
-0.145
3) CO[C@H]1CN(C)C(=O)c2ccc(NC(=O)C3CCC3)cc2OC[C@H](C)NC[C@@H]1C
0.146
4) O=C(c1ccncc1)N1C[C@H]2[C@@H](c3ccccc31)[C@H](CO)N2C(=O)Nc1ccc(F)cc1
0.255
5) C/C=C/c1ccc([C@H]2[C@@H](CO)N3CCCCN(C(=O)c4ccc(F)cc4)C[C@@H]23)cc1
0.11
6) COc1cccc(CNC(=O)C[C@@H]2CC[C@H]3[C@@H](COc4ccc(NC(=O)c5cccs5)cc4C(=O)N3C)O2)c1
-0.028
7) C[C@@H]1CCCCO[C@H](CN(C)C(=O)Nc2cccc3ccccc23)[C@@H](C)CN([C@@H](C)CO)C(=O)c2cc(NC(=O)Nc3ccc(F)cc3)ccc2O1
-0.01

----------
Assay: activators of inactive X chromosome reactivation, primary screen, imaging, XiGFP fibroblasts, GFP high-content imaging, set 2 (AID 743238)
Details: XiGFP mouse fibroblasts, % GFP-positive cells imaging, 3 d; at 7.58 µM; hits give high values; cells co-treated with 5-aza-dC sensitizer; scaled so ellipticine positive control = 100%
In all, about 360,000 compounds went through this assay and about 200 (0.056%) were called active. Many of the other results were omitted from the sample, so actives are more common in it than they were.
Quick reference for activation among some compounds
measure: activation (%)

1. COc1ccc2c3c(n(C)c2c1)[C@H](CO)NCC31CN(S(=O)(=O)c2cccc(C)c2)C1
0.887
2. CCC(=O)N1CC(=O)N2[C@@H](CO)[C@@H](c3ccc(C#CC4CCCC4)cc3)[C@@H]2C1
-0.0225
3. CNC(=O)C[C@H]1CC[C@@H]2[C@H](COc3ccc(NC(=O)Nc4cccc(F)c4)cc3C(=O)N2C)O1
0.022
4. Cc1c(/C=N\NC(=O)c2cc3ccccc3o2)c2ccccc2n1C
16.6
5. CC(C)NC(=O)N1[C@H](CO)[C@@H]2c3ccccc3N(C(=O)Nc3cccc(Cl)c3)C[C@@H]21
0.198
6. COc1ccc(NC(=O)Nc2ccc3c(c2)CC(=O)N([C@@H](C)CO)C[C@@H](C)[C@H](CN(C)C(=O)NC2CCCCC2)O3)cc1
-0.248
7. CCC(=O)N1CC2(CCN(Cc3ccc(Cl)cc3)CC2)c2c(n(C)c3cc(OC)ccc23)[C@@H]1CO
0.134
8. CC(C)(C)n1nc2c(c1NC(=O)c1cc3ccccc3o1)CSC2
0
9. COc1cccc(S(=O)(=O)N[C@H]2C=C[C@H](CC(=O)NC3Cc4ccccc4C3)O[C@H]2CO)c1
0.645

----------
Test: activators of inactive X chromosome reactivation, primary screen, imaging, XiGFP fibroblasts, GFP high-content imaging, set 2 (AID 743238)
Conditions: XiGFP mouse fibroblasts, % GFP-positive cells imaging, 3 d; at 7.58 µM; hits give high values; cells co-treated with 5-aza-dC sensitizer; scaled so ellipticine positive control = 100%
The campaign covered roughly 360,000 compounds. About 200 (0.056%) were called active. What follows is part of a selection rich in actives, with near analogues and random picks from the rest.
measure: activation (%)

1) C[C@H]1CN([C@@H](C)CO)C(=O)Cc2cc(NC(=O)Cc3ccccc3)ccc2O[C@@H]1CN(C)S(=O)(=O)c1ccc(Cl)cc1
-1.34
2) CCCN(C)C[C@@H]1Oc2ncc(C#Cc3ccccc3)cc2C(=O)N([C@H](C)CO)C[C@@H]1C
-0.009
3) CCCC(=O)N1CCC2(CC1)CN[C@H](CO)c1[nH]c3cc(OC)ccc3c12
-0.018
4) COc1ccc2c3c([nH]c2c1)[C@@H](CO)N(Cc1cc(F)ccc1F)CC31CCN(C(=O)C2CCC2)CC1
0.358

----------
Assay: activators of inactive X chromosome reactivation, primary screen, imaging, XiGFP fibroblasts, GFP high-content imaging, set 2 (AID 743238);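 further: 0% = median of on-plate neutral control wells and 100% = ellipticine 6 µM median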
Conditions: XiGFP mouse fibroblasts, % GFP-positive cells imaging, 3 d; at 7.58 µM; cells co-treated with 5-aza-dC sensitizer; scaled so ellipticine positive control = 100%
Screen size: about 360,000 compounds; about 200 (0.056%) were called active.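 Rule for the calls: active = mean normalized replicate activation at least 10% and every replicate at or above 10%; inconclusive = only one of the two criteria met; inactive = mean below 10% and not all replicates reach 10%.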 What follows is part of a selection rich in actives, with near analogues and random picks from the rest.
Possible outcomes: y = active, n = inactive

1. O=S(=O)(NC1CC1)c1ccc2c3c(cccc13)CC2
n
2. CCCN1[C@H](CO)[C@H](c2ccc(C#CC3CCCCC3)cc2)[C@@H]1CNC(=O)C1CC1
n
3. O=C(Nc1cccc(C(=O)O)c1)/C(=C\c1ccccc1)NC(=O)c1ccc(Br)o1
y
4. C[C@H](CO)N1C[C@H](C)[C@@H](CN(C)S(C)(=O)=O)Oc2ccc(NC(=O)Nc3ccc4c(c3)OCO4)cc2CC1=O
n
5. CCN(CC)c1ccc([N+](=O)[O-])cc1C(=O)O
n
6. O=C(NC(Cc1ccc(O)cc1)C(=O)O)/C(=C/c1ccccc1)NC(=O)c1ccccc1 (centres undefined)
n
7. CC[C@@H]1CC=CC[C@H](C)Oc2ccccc2C(=O)N(C)[C@H](Cc2ccccc2)C(=O)N1 (mixture of isomers)
n
8. COc1ccccc1C(=O)N/C(=C/c1ccc2c(c1)OCO2)C(=O)Nc1cccc(C(=O)O)c1
n
9. N#CC1(Nc2ccc3c4c(cccc24)CC3)CCCCC1
y

----------
Quick reference for activation among some molecules
Experiment: activators of inactive X chromosome reactivation, primary screen, imaging, XiGFP fibroblasts, GFP high-content imaging, set 2 (AID 743238);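 further: 0% = median of on-plate neutral control wells and 100% = ellipticine 6 µM median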
Details: XiGFP mouse fibroblasts, % GFP-positive cells imaging, 3 d; at 7.58 µM; hits give high values; cells co-treated with 5-aza-dC sensitizer; scaled so ellipticine positive control = 100%
About 200 (0.056%) of roughly 360,000 compounds were called active. This excerpt belongs to a sample that is enriched for actives.
measure: activation (%)

1) CN1CCN(C(=O)C[C@@H]2CC[C@@H]3[C@H](COC[C@H](O)CN3CC3CCOCC3)O2)CC1
0.0745
2) COc1ccccc1-c1ccc([C@H]2[C@@H](CO)N(CC3CC3)C23CN(S(C)(=O)=O)C3)cc1
0.04
3) COc1ccc2c3c(n(C)c2c1)[C@@H](CO)N(Cc1ccccc1F)CC31CCN(C(=O)C2CCOCC2)CC1
-0.019
4) COc1ccc2c3c(n(C)c2c1)[C@H](CO)N(C(C)=O)CC31CN(Cc2ccc(Cl)cc2)C1
-0.0005
5) O=C(CC1CC1)N1[C@@H](CO)[C@H](c2ccccc2)C12CN(Cc1cccnc1)C2
0.0215
6) C[C@@H]1CCCCO[C@@H](CN(C)S(=O)(=O)c2cn(C)cn2)[C@@H](C)CN([C@@H](C)CO)C(=O)c2cc(NC(=O)Nc3ccc(C(F)(F)F)cc3)ccc2O1
-0.98
7) C[C@H]1CN([C@@H](C)CO)C(=O)c2ccccc2-c2ccccc2CO[C@H]1CN(C)Cc1ccc(-c2ccccc2)cc1
0.132
8) CCCC#Cc1ccc([C@H]2[C@H]3CN(C(=O)Nc4cc(F)ccc4F)CC(=O)N3[C@H]2CO)cc1
0.26

----------
Test: activators of inactive X chromosome reactivation, primary screen, imaging, XiGFP fibroblasts, GFP high-content imaging, set 2 (AID 743238);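 further: 0% = median of on-plate neutral control wells and 100% = ellipticine 6 µM median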
Details: XiGFP mouse fibroblasts, % GFP-positive cells imaging, 3 d; at 7.58 µM; cells co-treated with 5-aza-dC sensitizer; scaled so ellipticine positive control = 100%
About 200 (0.056%) of roughly 360,000 compounds were called active.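 The calls were made as follows: active = mean normalized replicate activation at least 10% and every replicate at or above 10%; inconclusive = only one of the two criteria met; inactive = mean below 10% and not all replicates reach 10%.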 Shown is part of a subset that was picked to be rich in actives.
Possible outcomes: active, inactive

1) C[C@@H]1CN([C@@H](C)CO)C(=O)c2cc(NS(=O)(=O)c3ccc(F)cc3)ccc2O[C@@H]1CN(C)C(=O)NC1CCCCC1
inactive
2) CCS(=O)(=O)N1CC(=O)N2[C@H](C1)[C@@H](c1ccc(C#Cc3ccc(F)cc3)cc1)[C@@H]2CO
inactive
3) CCOC(=O)c1sc2nc(CSc3ccccc3)[nH]c(=O)c2c1C
active
4) O=C(C[C@H]1C[C@H]2c3cc(NC(=O)Nc4ccc(C(F)(F)F)cc4)ccc3O[C@H]2[C@@H](CO)O1)NCc1cccnc1
inactive
5) COc1ccc(N2C(=O)C3CCCN3C2c2cc(OC)c(OC)cc2OC)cc1 (configuration not stated)
inactive
6) Nc1c(C(=O)c2cccs2)sc2nsc(SCCN3CCCCC3)c12
active
7) O=C([C@@H]1[C@@H](CO)[C@@H]2Cn3c(ccc(-c4cncnc4)c3=O)[C@@H]2N1C(=O)C1CCC1)N1CCCCC1
inactive
8) CO[C@@H]1CN(C)C(=O)c2cc(NC(=O)C3CCCC3)ccc2OC[C@@H](C)N(C(=O)Nc2ccc(C(F)(F)F)cc2)C[C@H]1C
inactive
9) C[C@H]1CN([C@@H](C)CO)C(=O)c2cccc(NC(=O)CCCCCC(=O)Nc3ccccc3N)c2O[C@@H]1CN(C)C(=O)NC1CCCCC1
inactive
10) O=C(NCCc1c[nH]c2ccccc12)c1cc2ccccc2oc1=O
inactive
11) N#C[C@@H]1[C@H](c2ccccc2-c2ccccc2F)[C@@H](CO)N1C(=O)C1CCOCC1
inactive
12) CCS(=O)(=O)N1CC2(CN(C(=O)c3ccc(F)cc3)[C@@H](CO)c3c2c2ccc(OC)cc2n3C)C1
inactive
13) CCS(=O)(=O)N1[C@H](CO)[C@@H](c2ccccc2)C12CN(C(=O)c1ccccc1F)C2
inactive
14) COc1ccc(N2C(=O)C3CCCN3C2c2cccs2)cc1 (configuration not stated)
inactive
15) O=C(Nc1ccc(F)cc1)N1CC(=O)N2[C@H](CO)[C@H](c3ccc(C#Cc4ccccc4)cc3)[C@H]2C1
inactive
16) C/C=C/c1ccc([C@@H]2[C@H](CO)N(CC3CCOCC3)C23CN(S(=O)(=O)CC)C3)cc1
inactive
17) CC(C)NC(=O)N(C)C[C@@H]1Oc2ncc(C#CC3CC3)cc2C(=O)N([C@@H](C)CO)C[C@H]1C
inactive
18) O=C(C[C@@H]1C=C[C@H](NC(=O)C2CCC2)[C@@H](CO)O1)NCC1CC1
inactive
19) Cc1ccc(S(=O)(=O)N(C)CC(=O)NCCc2c[nH]c3ccccc23)cc1
inactive
20) CCc1nc2ccc(C(=O)N3CCN(c4cccc(Cl)c4)CC3)cc2nc1CC
inactive
21) CNc1cncc(-c2cccc(C(=O)N3CCOCC3)c2)n1
inactive
22) COc1cc(CN2CC3(CN(S(=O)(=O)c4cccs4)C3)c3c(n(C)c4cc(OC)ccc34)[C@H]2CO)cc(OC)c1
inactive
23) CSc1nnc(SCc2nc3sc(C(=O)O)c(C)c3c(=O)[nH]2)s1
inactive
24) Cc1noc(C)c1NC(=O)N[C@@H]1C=C[C@@H](CC(=O)Nc2ccccc2)O[C@H]1CO
inactive
25) C#Cc1cc(N2CCN(C(=O)c3ccoc3)CC2)n2nc(-c3cccc(Cl)c3)cc2n1
active
26) CCOC(=O)c1sc2nc(C)nc(SCC(N)=O)c2c1C
inactive
27) O=C(c1ccc(F)cc1)N1CC(=O)N2[C@@H](CO)[C@H](c3ccc(C4=CCCC4)cc3)[C@@H]2C1
inactive
28) C[C@H](CO)N1C[C@H](C)[C@H](CN(C)Cc2ccncc2)Oc2ccc(NS(=O)(=O)c3cn(C)cn3)cc2C1=O
inactive
29) N#C/C(=C/c1ccc(N2CCCCC2)o1)C(=O)NCCc1c[nH]c2ccccc12
active
30) CC(C)CC#Cc1cnc2c(c1)C(=O)N([C@H](C)CO)C[C@H](C)[C@H](CN(C)CC1CCOCC1)O2
inactive
31) COc1ccc(S(=O)(=O)N(C)C[C@@H]2Oc3ccc(NC(=O)CCN4CCOCC4)cc3CC(=O)N([C@@H](C)CO)C[C@@H]2C)cc1
inactive
32) CCC(=O)Nc1ccc2c(c1)C(=O)N(C)C[C@@H](OC)[C@@H](C)CN(C(=O)CN(C)C)[C@@H](C)CO2
inactive
